Target: neuronal synaptic puncta in hippocampal/cortical cultures
Assay: Abeta binding assay, neurons (immunofluorescence of neurite puncta)
Set-up: species or system rat
Conditions: pretreatment; single site model; read-out: EC50, prevention of Abeta binding
endpoint label: EC50
Param answer (str): number followed by unit.

## Task Value lookup for EC50; key = CC(C)=CC(C[C@H](C)c1ccc(C)cc1)NCC(C)C (stereo partly shown)
## Result 2.2 µM

----------
Assign displacement of Abeta oligomers to each entry below.
Test system: neuronal synaptic puncta in hippocampal/cortical cultures
Assay: Abeta binding assay, neurons (immunofluorescence of neurite puncta)
Parameters: species or system rat
Conditions: 15 µM compound added 1 hour after oligomers 0.5 µM, within 1 hour
Unit % implied. Number only.

## Task Value lookup for displacement of Abeta oligomers; key = C[C@H](CCc1ccc(Cl)cc1)NCc1ccc(C(F)(F)F)cc1
## Result 93

## Task Value lookup for displacement of Abeta oligomers; key = C[C@H](CCc1ccc(Cl)c(Cl)c1)NCc1ccc(C(F)(F)F)cc1
## Result 66

## Task Value lookup for displacement of Abeta oligomers; key = CC(C)=CC(C[C@H](C)c1ccc(C)cc1)NCC(C)C (stereo partly shown)
## Result 49

----------
Molecular target: neuronal synaptic puncta in hippocampal/cortical cultures
Assay: Abeta binding assay, neurons (immunofluorescence of neurite puncta)
Parameters: species or system rat
Details: displacement of pre-bound oligomers; read-out: IC50, Abeta binding, treatment
endpoint label: pIC50
Here pIC50 is given on a logarithmic scale as minus log10 of the concentration in mol/L.

## Task Value lookup for pIC50; key = C[C@H](CCc1ccc(Cl)c(Cl)c1)NCc1ccc(C(F)(F)F)cc1
## Result 5.41

----------
System: mouse models of Alzheimer's disease
Experiment: Behavioral tests (behavioral efficacy summary)
Type: in vivo, mice
Conditions: Table S1
endpoint label: Behavioral efficacy

These solved cases illustrate the format of a correct answer.
COc1cc(CCC(C)NCc2ccc(C(F)(F)F)cc2)ccc1O (centres unmarked) [CT0109]	Yes
C[C@H](CCc1ccc(Cl)cc1)NCc1ccc(C(F)(F)F)cc1 [CT01346]	Yes
COc1ccc(CCC(C)NC2CCCc3ccccc32)cc1 (centres unmarked) [CT01206]	No
C[C@H](CCc1ccc(Cl)c(Cl)c1)NCc1ccc(C(F)(F)F)cc1 [CT01344]	Yes

Now, please, on to the next molecule.
## Task Value lookup for Behavioral efficacy; key = CC(C)=CC(C[C@H](C)c1ccc(C)cc1)NCC(C)C (some centres unmarked) [CT0093]
## Result Yes

----------
Assign pKi to each entry below.
Biological target: sigma-2/PGRMC1 receptor (Homo sapiens)
Construct: endogenous in cells; host or cells: human Jurkat cells (membranes)
Sequence (Q5BJF2 whole entry): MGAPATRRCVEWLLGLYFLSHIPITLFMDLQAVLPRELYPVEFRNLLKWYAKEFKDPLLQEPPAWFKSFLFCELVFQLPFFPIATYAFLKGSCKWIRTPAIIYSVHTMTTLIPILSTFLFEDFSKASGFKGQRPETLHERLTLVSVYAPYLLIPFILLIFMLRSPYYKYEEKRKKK
Assay: Sigma-2 radioligand binding
Details: radioligand competition binding; read-out: Ki, binding affinity at the sigma-2/PGRMC1 receptor
Here pKi is given on a logarithmic scale as minus log10 of the concentration in mol/L.

## Task Value lookup for pKi; key = COc1cc(CCC(C)NCc2ccc(C(F)(F)F)cc2)ccc1O (stereo not shown) [CT0109]
## Result 8.05

## Task Value lookup for pKi; key = C[C@H](CCc1ccc(Cl)c(Cl)c1)NCc1ccc(C(F)(F)F)cc1 [CT01344]
## Result 7.32

## Task Value lookup for pKi; key = C[C@H](CCc1ccc(Cl)cc1)NCc1ccc(C(F)(F)F)cc1 [CT01346]
## Result 7.30

## Task Value lookup for pKi; key = CC(C)=CC(C[C@H](C)c1ccc(C)cc1)NCC(C)C (stereo partly shown) [CT0093]
## Result 7.27

----------
Test system: mature primary hippocampal and cortical cultures
Test: Membrane trafficking assay (MTT formazan exocytosis);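 further: mixed neuron and glia cultures from E18 Sprague-Dawley rat embryos, grown 3 weeks in 384-well plates, labeled vesicles quantified by imaging or spectrophotometry as percent of vehicle-treated wells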
Type: cell-based, rat
Conditions: Rattus norvegicus, compound added 1 hr prior to Abeta oligomers; log value; read-out: Prevention Log EC50 ± SE (converted)
endpoint label: EC50 (µM)
Unit µM implied. Number only.

## Task Value lookup for EC50; key = COc1cc(CCC(C)NCc2ccc(C(F)(F)F)cc2)ccc1O (centres unmarked) [CT0109]
## Result 3.24

## Task Value lookup for EC50; key = C[C@H](CCc1ccc(Cl)c(Cl)c1)NCc1ccc(C(F)(F)F)cc1 [CT01344]
## Result 8.71

## Task Value lookup for EC50; key = C[C@H](CCc1ccc(Cl)cc1)NCc1ccc(C(F)(F)F)cc1 [CT01346]
## Result 9.33

## Task Value lookup for EC50; key = CC(C)=CC(C[C@H](C)c1ccc(C)cc1)NCC(C)C (some centres unmarked) [CT0093]
## Result 4.9

## Task Value lookup for EC50; key = COc1ccc(CCC(C)NC2CCCc3ccccc32)cc1 (centres unmarked) [CT01206]
## Result 4.37

----------
Molecular target: neuronal synaptic puncta in hippocampal/cortical cultures
Assay: Abeta binding assay, neurons (immunofluorescence of neurite puncta)
Set-up: species or system rat
Conditions: single site model; read-out: EC50, displacement of pre-bound Abeta binding
endpoint label: EC50 (µM)
Unit µM implied. Number only.

## Task Value lookup for EC50; key = C[C@H](CCc1ccc(Cl)c(Cl)c1)NCc1ccc(C(F)(F)F)cc1 [CT01344]
## Result 3.9

----------
Experiment: Brain concentration of compounds (LC/MS/MS)
Type: in vivo, mice
Settings: hAPP Swe/Ldn transgenic, mouse, 30 mg/kg/day once daily oral gavage, 24 h after last dose, read-out: Compound Concentration in brain
endpoint label: concentration at 24 h (nM)
Unit nM implied. Number only.

## Task Value lookup for concentration at 24 h; key = C[C@H](CCc1ccc(Cl)c(Cl)c1)NCc1ccc(C(F)(F)F)cc1
## Result 793

## Task Value lookup for concentration at 24 h; key = C[C@H](CCc1ccc(Cl)cc1)NCc1ccc(C(F)(F)F)cc1
## Result 330
